# targetSystem: UniProt Q8NER1
# assayMethodText: FLIPR antagonism of pH activation, hTRPV1 in CHO cells
# conditionDetails: read-out: IC50 [pH], inhibition of pH activation
pIC50: −log10 of the molar value.
metricName: pIC50

As a guide, the following entries are already answered.
molecule | targetSystem | pIC50
C[C@@H](C(=O)NCc1ccc(C(F)(F)F)nc1SC1CCCCC1)c1ccc(NS(C)(=O)=O)c(F)c1 [24R] | UniProt Q8NER1 | < 6.00
CC(C(=O)NCc1ccc(C(F)(F)F)nc1S(=O)(=O)C1CCCCC1)c1ccc(NS(C)(=O)=O)c(F)c1 (stereo not shown) | UniProt Q8NER1 | < 6.00
CC(C(=O)NCc1ccc(C(F)(F)F)nc1SC1CCCC1)c1ccc(NS(C)(=O)=O)c(F)c1 (stereo not shown) | UniProt Q8NER1 | < 6.00

What pIC50 value was documented for this molecule, CC(C(=O)NCc1ccc(C(F)(F)F)nc1SCC(F)(F)F)c1ccc(NS(C)(=O)=O)c(F)c1 (stereo not shown) ?
< 6.00

----------
# targetSystem: human TRPV1 (Homo sapiens, UniProt Q8NER1)
# Sequence (Q8NER1 whole entry): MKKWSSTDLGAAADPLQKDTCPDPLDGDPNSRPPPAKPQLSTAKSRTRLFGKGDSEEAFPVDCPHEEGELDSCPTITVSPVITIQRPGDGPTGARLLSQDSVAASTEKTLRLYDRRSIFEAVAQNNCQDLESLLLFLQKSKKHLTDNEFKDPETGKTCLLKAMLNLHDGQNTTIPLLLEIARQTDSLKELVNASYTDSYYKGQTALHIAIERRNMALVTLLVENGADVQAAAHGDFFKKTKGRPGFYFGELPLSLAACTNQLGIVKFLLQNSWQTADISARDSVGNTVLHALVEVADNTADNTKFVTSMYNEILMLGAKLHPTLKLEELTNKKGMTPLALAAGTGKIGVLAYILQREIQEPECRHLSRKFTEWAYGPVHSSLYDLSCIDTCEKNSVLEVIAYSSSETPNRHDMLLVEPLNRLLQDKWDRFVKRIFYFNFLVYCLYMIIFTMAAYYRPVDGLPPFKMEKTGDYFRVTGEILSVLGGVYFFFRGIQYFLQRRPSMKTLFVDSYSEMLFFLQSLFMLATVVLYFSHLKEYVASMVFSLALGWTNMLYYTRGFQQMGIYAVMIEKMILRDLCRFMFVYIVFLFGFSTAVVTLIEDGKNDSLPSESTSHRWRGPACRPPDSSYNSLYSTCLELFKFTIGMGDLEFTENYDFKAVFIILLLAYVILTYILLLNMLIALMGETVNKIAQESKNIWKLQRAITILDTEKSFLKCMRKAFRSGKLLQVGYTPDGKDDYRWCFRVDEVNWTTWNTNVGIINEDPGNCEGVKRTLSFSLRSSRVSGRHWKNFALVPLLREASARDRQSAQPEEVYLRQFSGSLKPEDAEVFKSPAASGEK
# assayMethodText: FLIPR antagonism of pH activation, hTRPV1 in CHO cells
# conditionDetails: read-out: IC50 [pH], inhibition of pH activation
pIC50: −log10 of the molar value.
metricName: pIC50

As a guide, the following entries are already answered.
compound | targetSystem | pIC50
CC(C(=O)NCc1ccc(C(F)(F)F)nc1[S+]([O-])C1CCCCC1)c1ccc(NS(C)(=O)=O)c(F)c1 (stereo not shown) | human TRPV1 (Homo sapiens, UniProt Q8NER1) | < 6.00
CC(C(=O)NCc1ccc(C(F)(F)F)nc1SCc1ccco1)c1ccc(NS(C)(=O)=O)c(F)c1 (stereo not shown) | human TRPV1 (Homo sapiens, UniProt Q8NER1) | < 6.00
CC(C(=O)NCc1ccc(C(F)(F)F)nc1SC1CCCCC1C)c1ccc(NS(C)(=O)=O)c(F)c1 (stereo not shown) | human TRPV1 (Homo sapiens, UniProt Q8NER1) | < 6.00
CC(C(=O)NCc1ccc(C(F)(F)F)nc1SCc1cccs1)c1ccc(NS(C)(=O)=O)c(F)c1 (stereo not shown) | human TRPV1 (Homo sapiens, UniProt Q8NER1) | < 6.00
CC(C(=O)NCc1ccc(C(F)(F)F)nc1SCCC(=O)O)c1ccc(NS(C)(=O)=O)c(F)c1 (stereo not shown) | human TRPV1 (Homo sapiens, UniProt Q8NER1) | < 6.00
CCC1CCC(Sc2nc(C(F)(F)F)ccc2CNC(=O)C(C)c2ccc(NS(C)(=O)=O)c(F)c2)CC1 (stereo not shown) | human TRPV1 (Homo sapiens, UniProt Q8NER1) | < 6.00

Now for another entry.
API: value(readout= pIC50, system= human TRPV1 (Homo sapiens, UniProt Q8NER1), query= CC(C(=O)NCc1ccc(C(F)(F)F)nc1SCCC(=O)N1CCCC1)c1ccc(NS(C)(=O)=O)c(F)c1 (stereo not shown) )
< 6.00
